Form field: IC50 (one value per entry).
Tested on: Lox-IMVI melanoma cell line
Assay: Lox-IMVI anti-proliferative assay (growth inhibition, Cell Titer-Glo)
Assay type: cell-based, human
Settings: Homo sapiens; Lox-IMVI anti-proliferative assay, cell-based; read-out: Activity (IC50 activity level)
measured quantity: IC50

- molecule: "C[C@]1(C(N)=O)CC[C@@H](n2c(Nc3c(Cl)cc(Cl)cc3Cl)nc3cnc(N[C@H]4CCOC[C@@H]4F)nc32)CC1 [Example 802]"
  target desc: "Lox-IMVI melanoma cell line"
  endpoint value: "< 250 nM"
- molecule: "CC(=O)N1CCC[C@@H](Nc2ncc3nc(Nc4c(Cl)cccc4Cl)n([C@H]4CC[C@@H](C(N)=O)CC4)c3n2)C1 [Example 800]"
  target desc: "Lox-IMVI melanoma cell line"
  endpoint value: "> 1000 nM"
- molecule: "N#Cc1cc(F)c(Nc2nc3cnc(N[C@@H]4CCOC[C@H]4F)nc3n2[C@H]2CC[C@@H](C(N)=O)CC2)c(F)c1 [Example 801]"
  target desc: "Lox-IMVI melanoma cell line"
  endpoint value: "< 250 nM"
- molecule: "CC(=O)N1CCC[C@@H](Nc2ncc3nc(Nc4c(Cl)cc(F)cc4Cl)n([C@H]4CC[C@@H](C(N)=O)CC4)c3n2)C1 [Example 799]"
  target desc: "Lox-IMVI melanoma cell line"
  endpoint value: "> 1000 nM"

Origin of values: patent US11590139B2
